Tested on: MCF-7
Experiment: MTT cell proliferation assay, MCF-7
Type: cell-based, human
Conditions: Homo sapiens, MCF7; Table 4
Below, each of the compounds is paired with its reported IC50 value.
measured quantity: IC50 (µg/mL)

INSERT INTO measurements (compound, measured_quantity, readout_unit, result) VALUES
  ('C[C@@H]1CC[C@]2(C)CC[C@]3(C)C(=CC(=O)C4[C@@]5(C)CC[C@@H](OC(=O)CN)[C@](C)(C(=O)O)C5CC[C@]43C)C2[C@H]1C (stereo partly drawn)', 'IC50', 'µg/mL', 26.9),
  ('CC(=O)O[C@@H]1CC[C@@]2(C)C(CC[C@]3(C)C2C(=O)C=C2C4[C@@H](C)[C@H](C)CC[C@]4(C)CC[C@]23C)[C@@]1(C)C(=O)NCCN (stereo partly drawn)', 'IC50', 'µg/mL', 13),
  ('C[C@H](N)C(=O)O[C@@H]1CC[C@@]2(C)C(CC[C@]3(C)C2C(=O)C=C2C4[C@@H](C)[C@H](C)CC[C@]4(C)CC[C@]23C)[C@@]1(C)C(=O)O (stereo partly drawn)', 'IC50', 'µg/mL', 33.3),
  ('CC(=O)O[C@@H]1CC[C@@]2(C)C(CC[C@]3(C)C2C(=O)C=C2C4[C@@H](C)[C@H](C)CC[C@]4(C)CC[C@]23C)[C@@]1(C)C(=O)Nc1ccccc1Br (stereo partly drawn)', 'IC50', 'µg/mL', 24.1),
  ('CC(=O)O[C@@H]1CC[C@@]2(C)C(CC[C@]3(C)C2C(=O)C=C2C4[C@@H](C)[C@H](C)CC[C@]4(C)CC[C@]23C)[C@@]1(C)N (stereo partly drawn)', 'IC50', 'µg/mL', 14),
  ('CC(=O)O[C@@H]1CC[C@@]2(C)C(CC[C@]3(C)C2C(=O)C=C2C4[C@@H](C)[C@H](C)CC[C@]4(C)CC[C@]23C)[C@@]1(C)C(=O)N(C)CCO (stereo partly drawn)', 'IC50', 'µg/mL', 11.9);
